# Test: Human liver microsome (HLM) metabolic stability assay
# Format: in vitro ADME
# Test Settings: human liver microsomes, 1 uM compound, 37° C., 60 min; % hepatic blood flow
Value Kind: HLM (% Qh)

Known HLM (% Qh) results, listed for orientation:
CCS(=N)(=O)c1ccc(CNc2nc3c(C)nc(-c4c(C)ncnc4C4CC4)nc3n([C@@H](C)C3CC3)c2=O)cc1 (single isomer, unassigned) [Example 36b] | <24 % Qh
CCS(=O)(=O)c1cnc(CNc2nc3c(C)nc(-c4c(OC)ncnc4C4CC4)nc3n([C@@H](C)C3CC3)c2=O)nc1 | 27 % Qh
CC[C@@H](C)n1c(=O)c(NCc2ccc(S(=O)(=O)CC)cn2)nc2c(CO)nc(-c3c(C)ncnc3C3CC3)nc21 | <24 % Qh
Cc1ncnc(C2CC2)c1-c1nc(C)c2nc(NCc3ccc(S(N)(=O)=O)cn3)c(=O)n([C@@H](C)C(F)(F)F)c2n1 | <24 % Qh
COc1ncnc(C2CC2)c1-c1nc(C)c2nc(NCc3ccc(S(N)(=O)=O)nc3)c(=O)n([C@@H](C)C(F)(F)F)c2n1 | 46 % Qh
CC[C@@H](C)n1c(=O)c(NCc2ncc(S(C)(=O)=O)cn2)nc2c(C)nc(-c3c(OC)ncnc3C3CC3)nc21 | <24 % Qh
CCS(=O)(=O)c1cnc(CNc2nc3c(C)nc(-c4c(C)ncnc4C4CC4)nc3n([C@@H](C)C3CC3)c2=O)nc1 | <24 % Qh

# context switch: different compound, same HLM (% Qh)
INPUT: // returns reported HLM (% Qh) for input `CC[C@H](C)n1c(=O)c(NCc2ncc(S(=O)(=O)CC)cn2)nc2c(C)nc(-c3c(OC)ncnc3C3CC3)nc21`
OUTPUT: <24 % Qh
